All figures here come from PubChem BioAssay (NCI).

ASSAY OVERVIEW: NCI Yeast Anticancer Drug Screen. Data for the sgs1 mgt1 strain (AID 161);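 further: 0% = growth of cultures given vehicle only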
ASSAY SETUP: S. cerevisiae sgs1 mgt1 strain, at 5.0 µM (retest, dose inferred, filed as 0.5), active compounds read high
About 79,000 compounds went through this panel and 15% of them were active in at least one assay; those are over-represented in the sample as a whole.
MEASURE: growth inhibition (%)
Express your answer in %, writing the number without its unit.

Consider the following illustrative entries.
{"COMPOUND": "CCN(CC)CCCNc1ccc([N+](=O)[O-])c2nc3ccc(OC)cc3c(NCCCN(CC)CC)c12", "growth inhibition [%]": -8}
{"COMPOUND": "Oc1ccc(C2(c3ccc(O)cc3)CCCC2)cc1", "growth inhibition [%]": 9}
{"COMPOUND": "COC(=O)C(=O)c1c(-c2ccc(Cl)c(Cl)c2)[nH]c2[nH]n(-c3ccccc3)c(=O)c2c1=O", "growth inhibition [%]": -3}

Problem: Using the record for `CCCN=Cc1cc(Cc2ccc(O)c(C=NCCC)c2)ccc1O` , report its growth inhibition.
Solution: -15

Problem: Would you mind telling me what growth inhibition value was observed for `CC(=O)Oc1ccc2c(c1)Cc1cc(N3C(=O)C=CC3=O)ccc1-2` ?
Solution: 17

Problem: Query (compound): `CC(C)(N=Nc1ccc(Cl)cc1)[N+](=O)[O-]` ; field requested: growth inhibition
Solution: 35

Problem: Which growth inhibition reading was recorded for the compound COc1ccc2c(c1)CCCC(Br)C2=O (stereo unspecified) ?
Solution: 17

Problem: Item `O=c1c2ccccc2nc(-c2ccc(Cl)cc2)n1O` has what recorded growth inhibition?
Solution: 46

Problem: What growth inhibition value was documented for this compound, `CNC(=S)N/N=C(/C)CCC/C(C)=N/NC(=S)NC` ?
Solution: 48

Problem: Consider the compound shown here: O=S(=O)(c1cccc(C(F)(F)F)c1)N1c2ccccc2-n2cccc2C1c1cccnc1 (stereo unspecified) What is its recorded growth inhibition?
Solution: 18

Problem: Fill in the blank: the reported growth inhibition of `O=C1C(=O)N(c2ccccc2)[C@@]2(c3ccccc3)C(=Nc3ccccc3)OC(c3ccccc3)=C12` is ____.
Solution: 49

----------
ASSAY OVERVIEW: NCI Yeast Anticancer Drug Screen. Data for the rad52 strain (AID 147);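 further: 0% = growth of vehicle-treated control cultures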
ASSAY SETUP: S. cerevisiae rad52 mutant growth inhibition; at 100.0 µM
Compounds without any hit were thinned out: in the full panel of roughly 79,000, 15% have a hit. The source made the active and inactive calls. Cut-off read from the data, not from the text of the source: active = growth inhibition above about 70%; inactive = the rest.
Form entry, call: pick from class 1 for active, class 0 for inactive

{"MOLECULE": "Cc1cc(OCc2nc(N)nc(N)c2-c2ccc(Cl)c(Cl)c2)ccc1[N+](=O)[O-]", "CLASS": "class 0"}
{"MOLECULE": "Cc1ccc(S(=O)(=O)Nc2cccc3cccnc23)cc1", "CLASS": "class 0"}
{"MOLECULE": "CC1(C)CC(=O)C(/C=N/c2nc(-c3ccc(Br)cc3)cs2)=C(O)C1", "CLASS": "class 1"}

Problem: Short answer needed: outcome of this test for `O=[N+]([O-])c1cccc2nc3ccccc3c(NCCCN3CCCCC3)c12` ?
Solution: class 1

Problem: For `Cc1cc(Cl)ccc1NC(=O)/C(Cl)=C(/Cl)C(=O)O` , which call appears in the assay record?
Solution: class 1

Problem: Recorded call for `O=C(CCCN1CCC(Nc2ccc(F)cc2)(c2nnnn2C2CCCCC2)CC1)c1ccc(F)cc1` ?
Solution: class 1

Problem: Given CCC(OC(C)=O)C1CC(C(C)C)CCC1C (centres undefined) , state the outcome it received in this test.
Solution: class 0

Problem: Short answer needed: outcome of this test for `Oc1c2c(c(O)c3ccccc13)C1(N=N2)c2ccccc2Oc2ccccc21` ?
Solution: class 1

Problem: Can you look up the reported call for `C=CCNC1=C2C[C@@H](C)C[C@H](OC)[C@H](O)[C@@H](C)/C=C(\C)[C@H](OC(N)=O)[C@@H](OC)/C=C\C=C(/C)C(=O)NC(=CC1=O)C2=O` for me?
Solution: class 1

Problem: What did the test return for `CC(C)=CCc1c2c(c(O)c3c(=O)c(-c4ccc(O)c(O)c4)coc13)C=CC(C)(C)O2` ?
Solution: class 1

Problem: What classification did `O=[N+]([O-])c1ccc(/C=C\c2ccc3c(c2)OCO3)c([N+](=O)[O-])c1` end up with in this test?
Solution: class 1
